Origin of the recorded values: ChEMBL document CHEMBL4024712

# Test system: Staphylococcus aureus
# Experimental protocol: Bactericidal activity against methicillin-resistant Staphylococcus aureus ATCC 33591 by CLSI method
# Type: functional
Non-standard residues stand in square brackets, D forms with d. Residues, ends and D or L forms follow the SMILES beside them. Ala(9-anthryl) = N[C@@H](Cc1c2ccccc2cc2ccccc12)C(=O)O; His(τ-Bzl) = N[C@@H](Cc1cn(Cc2ccccc2)cn1)C(=O)O; Phe(4-Me) = Cc1ccc(C[C@H](N)C(=O)O)cc1; 1Nal = N[C@@H](Cc1cccc2ccccc12)C(=O)O; Bta = N[C@@H](Cc1csc2ccccc12)C(=O)O; Cha = N[C@@H](CC1CCCCC1)C(=O)O; Orn = NCCC[C@H](N)C(=O)O
Metric name: MBC (µg/mL)
The reply should contain only the number, in µg/mL.

Example entries and their recorded answers appear below.
Compound	Metric name	Result
CC[C@H](C)[C@H](NC(=O)[C@H](CC1CCCCC1)NC(=O)[C@@H](Cc1c[nH]c2ccccc12)NC(=O)[C@@H](N)CCCN)C(=O)N[C@@H](Cc1c2ccccc2cc2ccccc12)C(=O)N[C@@H](Cc1cn(Cc2ccccc2)cn1)C(N)=O (H-[Orn][dW][Cha]I[Ala(9-anthryl)][His(τ-Bzl)]-NH2)	MBC	10
NCCC[C@H](N)C(=O)N[C@H](Cc1c[nH]c2ccccc12)C(=O)N[C@@H](CC1CCCCC1)C(=O)N[C@@H](Cc1cccc2ccccc12)C(=O)N[C@H](Cc1ccccc1)C(=O)N[C@@H](Cc1cn(Cc2ccccc2)cn1)C(N)=O (H-[Orn][dW][Cha][1Nal][dF][His(τ-Bzl)]-NH2)	MBC	20
Cc1ccc(C[C@H](NC(=O)[C@@H](Cc2ccccc2)NC(=O)[C@@H](Cc2c[nH]c3ccccc23)NC(=O)[C@H](N)CCCNC(=N)N)C(=O)N[C@H](Cc2ccccc2)C(=O)N[C@@H](Cc2cn(Cc3ccccc3)cn2)C(N)=O)cc1 (H-[dR][dW][dF][Phe(4-Me)][dF][His(τ-Bzl)]-NH2)	MBC	20

Read the next record carefully.
Can you look up the measured MBC of NCCC[C@H](N)C(=O)N[C@H](Cc1c[nH]c2ccccc12)C(=O)N[C@@H](CC1CCCCC1)C(=O)N[C@@H](Cc1csc2ccccc12)C(=O)N[C@H](Cc1ccccc1)C(=O)N[C@@H](Cc1cn(Cc2ccccc2)cn1)C(N)=O (H-[Orn][dW][Cha][Bta][dF][His(τ-Bzl)]-NH2) for me?
20

###

# System: Staphylococcus aureus
# Experimental protocol: Anti-bacterial activity against Staphylococcus aureus ATCC 29213 by CLSI method
# Assay type: functional
# Applied conditions: Staphylococcus aureus, ATCC 29213
Non-standard residues stand in square brackets, D forms with d. Residues, ends and D or L forms follow the SMILES beside them. Ala(9-anthryl) = N[C@@H](Cc1c2ccccc2cc2ccccc12)C(=O)O; His(τ-Bzl) = N[C@@H](Cc1cn(Cc2ccccc2)cn1)C(=O)O; Phe(4-Me) = Cc1ccc(C[C@H](N)C(=O)O)cc1; 1Nal = N[C@@H](Cc1cccc2ccccc12)C(=O)O; Cha = N[C@@H](CC1CCCCC1)C(=O)O; Phg = N[C@H](C(=O)O)c1ccccc1; Orn = NCCC[C@H](N)C(=O)O; Dab = NCC[C@H](N)C(=O)O
Metric name: MIC (µg/mL)
The reply should contain only the number, in µg/mL.

Molecule	Result
CC[C@H](C)[C@H](NC(=O)[C@H](CC1CCCCC1)NC(=O)[C@@H](Cc1c[nH]c2ccccc12)NC(=O)[C@@H](N)CCCN)C(=O)N[C@@H](Cc1cccc2ccccc12)C(=O)N[C@@H](Cc1cn(Cc2ccccc2)cn1)C(N)=O (H-[Orn][dW][Cha]I[1Nal][His(τ-Bzl)]-NH2)	20
CC[C@H](C)[C@H](NC(=O)[C@H](CC1CCCCC1)NC(=O)[C@@H](Cc1c[nH]c2ccccc12)NC(=O)[C@@H](N)CCCN)C(=O)N[C@@H](Cc1c2ccccc2cc2ccccc12)C(=O)N[C@@H](Cc1cn(Cc2ccccc2)cn1)C(N)=O (H-[Orn][dW][Cha]I[Ala(9-anthryl)][His(τ-Bzl)]-NH2)	5
Cc1ccc(C[C@H](NC(=O)[C@@H](Cc2ccccc2)NC(=O)[C@@H](Cc2c[nH]c3ccccc23)NC(=O)[C@H](N)CCCNC(=N)N)C(=O)N[C@H](Cc2ccccc2)C(=O)N[C@@H](Cc2cn(Cc3ccccc3)cn2)C(N)=O)cc1 (H-[dR][dW][dF][Phe(4-Me)][dF][His(τ-Bzl)]-NH2)	20

Can you look up the measured MIC of NCCC[C@H](N)C(=O)N[C@H](Cc1c[nH]c2ccccc12)C(=O)N[C@@H](CC1CCCCC1)C(=O)N[C@H](C(=O)N[C@H](Cc1ccccc1)C(=O)N[C@@H](Cc1cn(Cc2ccccc2)cn1)C(N)=O)c1ccccc1 (H-[Orn][dW][Cha][Phg][dF][His(τ-Bzl)]-NH2) for me?
20

Can you look up the measured MIC of CC[C@@H](C)[C@@H](NC(=O)[C@H](CC1CCCCC1)NC(=O)[C@@H](Cc1c[nH]c2ccccc12)NC(=O)[C@@H](N)CCCN)C(=O)N[C@H](Cc1ccccc1)C(=O)N[C@@H](Cc1cn(Cc2ccccc2)cn1)C(N)=O (H-[Orn][dW][Cha][dI][dF][His(τ-Bzl)]-NH2) for me?
20

Can you look up the measured MIC of NCCC[C@H](N)C(=O)N[C@H](Cc1c[nH]c2ccccc12)C(=O)N[C@@H](CC1CCCCC1)C(=O)N[C@@H](Cc1cccc2ccccc12)C(=O)N[C@H](Cc1ccccc1)C(=O)N[C@@H](Cc1cn(Cc2ccccc2)cn1)C(N)=O (H-[Orn][dW][Cha][1Nal][dF][His(τ-Bzl)]-NH2) for me?
10

Can you look up the measured MIC of Cc1ccc(C[C@H](NC(=O)[C@@H](Cc2ccccc2)NC(=O)[C@@H](Cc2c[nH]c3ccccc23)NC(=O)[C@@H](N)CCN)C(=O)N[C@H](Cc2ccccc2)C(=O)N[C@@H](Cc2cn(Cc3ccccc3)cn2)C(N)=O)cc1 (H-[Dab][dW][dF][Phe(4-Me)][dF][His(τ-Bzl)]-NH2) for me?
20

Can you look up the measured MIC of Cc1ccc(C[C@H](NC(=O)[C@@H](Cc2ccccc2)NC(=O)[C@@H](Cc2c[nH]c3ccccc23)NC(=O)[C@@H](N)CCCN)C(=O)N[C@H](Cc2ccccc2)C(=O)N[C@H](CCCNC(=N)N)C(N)=O)cc1 (H-[Orn][dW][dF][Phe(4-Me)][dF][dR]-NH2) for me?
20

Can you look up the measured MIC of NCCC[C@H](N)C(=O)N[C@H](Cc1c[nH]c2ccccc12)C(=O)N[C@@H](CC1CCCCC1)C(=O)N[C@@H](CC1CCCCC1)C(=O)N[C@H](Cc1ccccc1)C(=O)N[C@@H](Cc1cn(Cc2ccccc2)cn1)C(N)=O (H-[Orn][dW][Cha][Cha][dF][His(τ-Bzl)]-NH2) for me?
10
